As shown below, each of these sequences has a reported log2 fold change of degron read counts value.
experimental system: T1, CRBN, Q96SW2;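 also: pooled lentiviral library of zinc finger degron-EGFP fusions in mCherry-positive Jurkat cells, FACS-sorted after compound exposure, with degron abundance counted by next-generation sequencing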
T1 chain: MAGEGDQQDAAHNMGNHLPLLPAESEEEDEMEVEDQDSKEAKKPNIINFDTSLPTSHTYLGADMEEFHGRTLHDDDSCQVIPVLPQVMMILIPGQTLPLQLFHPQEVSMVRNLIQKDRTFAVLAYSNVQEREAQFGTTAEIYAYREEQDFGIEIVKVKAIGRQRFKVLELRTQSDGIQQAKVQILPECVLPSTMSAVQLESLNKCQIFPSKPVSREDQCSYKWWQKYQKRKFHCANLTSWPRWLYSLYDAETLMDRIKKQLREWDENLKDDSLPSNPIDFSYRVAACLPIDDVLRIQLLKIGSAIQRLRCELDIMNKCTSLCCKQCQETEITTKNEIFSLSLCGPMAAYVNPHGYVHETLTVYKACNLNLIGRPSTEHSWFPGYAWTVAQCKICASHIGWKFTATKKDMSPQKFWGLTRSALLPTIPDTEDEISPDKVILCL
measurement notes: log2 fold change of degron read counts, EGFP-low vs EGFP+ sorted cells (limma voom), compound-induced degradation; higher = more compound-induced degradation of the degron-EGFP fusion; degrons are variants of IKZF1/3 zinc finger 2; compound dose not given here
test settings: Jurkat; 18 h; compound: compound 19 (5-tert-butyl-thalidomide)
In all, about 8,300 sequences were measured (“log2 fold change of degron read counts, EGFP-low vs EGFP+ sorted cells (limma voom), compound-induced degradation”: median about -1.1, highest 2% from about 3.2 on). The entries come from a sample that favours the highest values as a whole.
quantity kind: log2 fold change of degron read counts

INSERT INTO results (seq, assay_value) VALUES
  ('FSCEVCGAKFTQKGNLLRHIKL [46F_47S_49E_50V_52G_53A_54K_55F_67L_, Q9UKT9]', 3.08),
  ('FWCEVCGAKFTQKGNLLRHIKL [46F_47W_49E_50V_52G_53A_54K_55F_67L_, Q9UKT9]', 3.74),
  ('FKCEVCGAKFTQKGNLLRHIKL [46F_47K_49E_50V_52G_53A_54K_55F_67L_, Q9UKT9]', -1.41),
  ('FDCEVCGAKFTQKGNLLRHIKL [46F_47D_49E_50V_52G_53A_54K_55F_67L_, Q9UKT9]', 1.57);

Data provenance is the supplement of paper PMC12645437.
